# Protocol Summary: self-splicing fitness, log relative to wild type (ln ratio); higher = more splicing; Tetrahymena group I intron in knt gene, E. coli kanamycin selection, DiMSum; sequences stand for … in CUCUCU…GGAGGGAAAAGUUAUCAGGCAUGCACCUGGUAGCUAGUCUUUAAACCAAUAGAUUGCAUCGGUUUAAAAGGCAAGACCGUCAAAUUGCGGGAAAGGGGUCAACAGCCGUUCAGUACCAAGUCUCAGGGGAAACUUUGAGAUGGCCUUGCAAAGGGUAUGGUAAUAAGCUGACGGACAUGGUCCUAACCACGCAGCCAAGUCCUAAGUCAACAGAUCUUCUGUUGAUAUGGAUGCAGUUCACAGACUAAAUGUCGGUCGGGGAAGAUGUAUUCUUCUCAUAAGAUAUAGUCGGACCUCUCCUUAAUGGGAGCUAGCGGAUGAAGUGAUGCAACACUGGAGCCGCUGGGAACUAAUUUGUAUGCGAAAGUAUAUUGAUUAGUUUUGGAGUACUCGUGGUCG;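 also: selection with 25 µg/mL kanamycin versus none on LB agar overnight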
# Condition Description: 30 °C
Assay Readout: self-splicing fitness (ln)

Example sequences with recorded self-splicing fitness (ln):
AAACAGCAAUAUUACGCCCU; -0.534
UGUUAGCAAUAUUACGGUCC; -2.6

### Prompt Find the recorded self-splicing fitness (ln) belonging to CUAUAGCAAUAUUACGUUCU and report it.
### Response -3.41

### Prompt Find the recorded self-splicing fitness (ln) belonging to GUACAGCAAUAUUACGUAUC and report it.
### Response -2.87

### Prompt Find the recorded self-splicing fitness (ln) belonging to UGUAAGCAAUAUUACGUUGG and report it.
### Response -2.14

### Prompt Find the recorded self-splicing fitness (ln) belonging to GAGUAGCAAUAUUACGUGCG and report it.
### Response -2.61

### Prompt Find the recorded self-splicing fitness (ln) belonging to UUGUAGCAAUAUUACGGCUG and report it.
### Response -2.35

### Prompt Find the recorded self-splicing fitness (ln) belonging to CUCCAGCAAUAUUACGCUCC and report it.
### Response -2.73

### Prompt Find the recorded self-splicing fitness (ln) belonging to CCGUAGCAAUAUUACGUCCU and report it.
### Response -3

### Prompt Find the recorded self-splicing fitness (ln) belonging to CCUUAGCAAUAUUACGAAUA and report it.
### Response -2.52

### Prompt Find the recorded self-splicing fitness (ln) belonging to CCAAAGCAAUAUUACGUGAA and report it.
### Response -4.04

### Prompt Find the recorded self-splicing fitness (ln) belonging to GCCAAGCAAUAUUACGAAAC and report it.
### Response -2.15

###

Reported self-splicing fitness (ln) values for the following sequences.
# Protocol Summary: self-splicing fitness, log relative to wild type (ln ratio); higher = more splicing; Tetrahymena group I intron in knt gene, E. coli kanamycin selection, DiMSum; sequences stand for … in CUCUCU…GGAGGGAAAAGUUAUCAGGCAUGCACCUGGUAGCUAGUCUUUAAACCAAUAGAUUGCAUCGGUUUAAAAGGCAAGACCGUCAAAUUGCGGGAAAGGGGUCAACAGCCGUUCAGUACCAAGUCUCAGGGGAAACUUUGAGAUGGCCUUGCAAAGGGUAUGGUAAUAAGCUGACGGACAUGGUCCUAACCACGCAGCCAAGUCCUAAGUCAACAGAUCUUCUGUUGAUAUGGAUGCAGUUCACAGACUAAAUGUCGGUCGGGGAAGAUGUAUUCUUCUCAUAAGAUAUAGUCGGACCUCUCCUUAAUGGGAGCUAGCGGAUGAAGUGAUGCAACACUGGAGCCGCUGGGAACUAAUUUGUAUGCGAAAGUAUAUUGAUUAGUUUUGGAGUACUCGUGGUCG
# Condition Description: 37 °C

UUUCAGCAAUAUUACGAAUG; -0.0774
CACGAGCAAUAUUACGUACU; -2.54
UUAAAGCAAUAUUACGGGCG; -0.11
AGUCAGCAAUAUUACGGAAU; -0.425
ACUUAGCAAUAUUACGUCCG; -0.774

### Prompt Find the recorded self-splicing fitness (ln) belonging to GAAAAGCAAUAUUACGCACU and report it.
### Response 0.475

### Prompt Find the recorded self-splicing fitness (ln) belonging to CCGCAGCAAUAUUACGUGUU and report it.
### Response -3.1

### Prompt Find the recorded self-splicing fitness (ln) belonging to GUCAAGCAAUAUUACGAGGG and report it.
### Response -3.38

### Prompt Find the recorded self-splicing fitness (ln) belonging to ACCGAGCAAUAUUACGCACC and report it.
### Response -1.08

### Prompt Find the recorded self-splicing fitness (ln) belonging to GCCAAGCAAUAUUACGGUGU and report it.
### Response -0.507

### Prompt Find the recorded self-splicing fitness (ln) belonging to UCUUAGCAAUAUUACGUGGG and report it.
### Response -2.21

### Prompt Find the recorded self-splicing fitness (ln) belonging to UUUAAGCAAUAUUACGAGAC and report it.
### Response -2.63

### Prompt Find the recorded self-splicing fitness (ln) belonging to GUUAAGCAAUAUUACGCCGA and report it.
### Response -0.947

### Prompt Find the recorded self-splicing fitness (ln) belonging to CGUAAGCAAUAUUACGAAAG and report it.
### Response -0.821

### Prompt Find the recorded self-splicing fitness (ln) belonging to CUGUAGCAAUAUUACGGAGA and report it.
### Response -3.56

### Prompt Find the recorded self-splicing fitness (ln) belonging to AGCUAGCAAUAUUACGAGCG and report it.
### Response -0.0421

###

# Protocol Summary: self-splicing fitness, log relative to wild type (ln ratio); higher = more splicing; Tetrahymena group I intron in knt gene, E. coli kanamycin selection, DiMSum; sequences stand for … in CUCUCU…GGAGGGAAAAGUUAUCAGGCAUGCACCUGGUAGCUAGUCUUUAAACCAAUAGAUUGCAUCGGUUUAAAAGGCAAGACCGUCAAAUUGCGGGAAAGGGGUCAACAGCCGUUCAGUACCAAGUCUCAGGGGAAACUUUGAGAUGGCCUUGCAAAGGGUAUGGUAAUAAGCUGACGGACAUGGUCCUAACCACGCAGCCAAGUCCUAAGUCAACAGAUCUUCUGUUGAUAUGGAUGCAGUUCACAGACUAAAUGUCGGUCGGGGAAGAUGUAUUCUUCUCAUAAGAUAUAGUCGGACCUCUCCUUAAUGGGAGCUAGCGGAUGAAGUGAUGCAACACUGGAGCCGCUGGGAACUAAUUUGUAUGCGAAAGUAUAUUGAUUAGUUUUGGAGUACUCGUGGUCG
# Condition Description: 30 °C
Reported self-splicing fitness (ln) values for the following sequences.

Example sequences with recorded self-splicing fitness (ln):
ACAAAGCAAUAUUACGGCAU; -0.565
ACUCAGCAAUAUUACGACUA; -0.633
UAUGAGCAAUAUUACGAGUA; -2.16
AAAUAGCAAUAUUACGAUGC; -2.26
ACUCAGCAAUAUUACGAAUG; -1.17
GUAGAGCAAUAUUACGAAGG; -1.87

### Prompt Find the recorded self-splicing fitness (ln) belonging to AACCAGCAAUAUUACGGCAA and report it.
### Response -0.217

### Prompt Find the recorded self-splicing fitness (ln) belonging to GUCAAGCAAUAUUACGUCGA and report it.
### Response -3.6

###

# Protocol Summary: self-splicing fitness, log relative to wild type (ln ratio); higher = more splicing; Tetrahymena group I intron in knt gene, E. coli kanamycin selection, DiMSum; sequences stand for … in CUCUCU…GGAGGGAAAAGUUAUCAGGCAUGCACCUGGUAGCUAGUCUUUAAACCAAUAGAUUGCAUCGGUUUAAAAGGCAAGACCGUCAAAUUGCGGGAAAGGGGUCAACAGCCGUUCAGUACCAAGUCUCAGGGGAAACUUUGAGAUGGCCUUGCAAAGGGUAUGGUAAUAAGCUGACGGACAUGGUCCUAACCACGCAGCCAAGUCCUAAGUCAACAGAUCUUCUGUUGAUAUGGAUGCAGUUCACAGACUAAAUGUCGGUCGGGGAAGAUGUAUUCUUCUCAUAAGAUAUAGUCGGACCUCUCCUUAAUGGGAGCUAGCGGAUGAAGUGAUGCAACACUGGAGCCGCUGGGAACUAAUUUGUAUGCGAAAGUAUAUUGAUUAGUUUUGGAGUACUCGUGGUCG
# Condition Description: 37 °C
Reported self-splicing fitness (ln) values for the following sequences.
Quick one: just the number, no unit, thanks!

GGGCAGCAAUAUUACGACAU; 0.0276

### Prompt Find the recorded self-splicing fitness (ln) belonging to GUCGAGCAAUAUUACGAGAU and report it.
### Response -2.45

### Prompt Find the recorded self-splicing fitness (ln) belonging to UUCUAGCAAUAUUACGAGGC and report it.
### Response -2.11

### Prompt Find the recorded self-splicing fitness (ln) belonging to GUUUAGCAAUAUUACGACAG and report it.
### Response -2.43

### Prompt Find the recorded self-splicing fitness (ln) belonging to CCUAAGCAAUAUUACGUUGC and report it.
### Response -3.42

### Prompt Find the recorded self-splicing fitness (ln) belonging to CCGAAGCAAUAUUACGGCAA and report it.
### Response -1.98

### Prompt Find the recorded self-splicing fitness (ln) belonging to CGUGAGCAAUAUUACGACAG and report it.
### Response -0.318
